experiment_notes: Pharmacokinetics in dogs (plasma concentration by HPLC)
Assay type: in vivo, dog (beagle)
details: dog, plasma, po, 2 mg/kg/day, Dog 1, day 5; 2 mg/kg/day PO; read-out: AUCO- (to infinite time)
measured_attribute: AUC(0-inf) (ng·h/mL)

INSERT INTO assay_data (molecule, measured_attribute, measure_unit, recorded_number) VALUES
  ('CCN(CC)CCOc1ccc(Nc2nccc(-c3ccncc3)n2)cc1.Cl.Cl [Compound 3, reference compound]', 'AUC(0-inf)', 'ng·h/mL', 392);

1. Cc1cc(Nc2nccc(-c3ccncc3)n2)ccc1N.Cl.Cl [Compound 2, reference compound]
2. c1cc(Nc2nccc(-c3cccs3)n2)cc(OCCn2ccnc2)c1
Ask | In terms of reported AUC(0-inf), does 1 or 2 have the smaller number? Which one? Tell me its label.
Reply | 1
